molecular target: T1, A beta oligomer (synthetic A beta1-40, HCl form, 0.1 mg/ml in PBS, incubated at 37 degrees C for one hour) (UniProt P05067 672-711); experiment: SPR (Biacore 3000)
T1 construct: domain: A beta1-40; non-fibrous multimer of the peptide; also called A beta 1-40 oligomer

Binder: IR-108 antibody (antibody, mouse IgG2a, V domains shown, mouse IgG2a) VH: QVTLKESGPGILKPSQTLSLTCSFSGFSLSTSGMGVGWIRQPSGKGLEWLAHIWWDDDKYYNPSLKSQLTISKDTSRNQVFLKITSVDTADTATYYCARRGLRRGDYFDYWGQGTTLTVSS VL: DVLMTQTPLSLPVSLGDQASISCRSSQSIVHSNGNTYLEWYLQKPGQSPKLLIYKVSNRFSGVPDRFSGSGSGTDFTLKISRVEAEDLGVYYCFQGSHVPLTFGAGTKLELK
Kd, nM: 11.8
--
Binder: IR-110 antibody (antibody, mouse IgG2b, V domains shown, mouse IgG2b) VH: DVQLVESGGGLVQPGGSRKLSCAASGFTFSSFGMHWVRQAPEKGLEWVAYISSGSSTIYYADTVKGRFTISRDNPKNTLFLQMTSLRSEDTAMYYCASYGNYGAYWGQGTLVTVSA VL: DVLMTQTPLSLPVSLGDQASISCRSSQSIVHSNGNTYLEWYLQKPGQSPKLLIYKVSNRFSGVPDRFSGSGSGTDFTLKISRVEAEDLGVYYCFQGSHVPPTFGGGTKLEIK
Kd, nM: 177
--
Binder: IR-057 antibody (antibody, mouse IgG1, V domains shown, mouse IgG1) VH: DVQLVESGGGLVQPGGSRKLSCAASGFTFSSFGMHWVRQAPEKGLEWVAYISSGSSTIYYADTVKGRFTISRDNPKNTLFLQMTSLRSEDTAMYYCARYGNYAMDYWGQGTSVTVSS VL: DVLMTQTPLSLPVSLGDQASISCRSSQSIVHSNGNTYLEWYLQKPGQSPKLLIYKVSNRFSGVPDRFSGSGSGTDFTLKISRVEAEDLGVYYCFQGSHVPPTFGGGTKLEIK
Kd, nM: 156
--
Binder: IR-028 antibody (antibody, V domains shown, mouse IgG2b) VH: DVQLVESGGGLVQPGGSRKLSCAASGFTFSSFGMHWVRQAPEKGLEWVAYISSGSSTIYYADTVKGRFTISRDNPKNTLFLQMTSLRSEDTAMYYCARTGTGAMDYWGQGTSVTVSS VL: DVVMTQTPLSLPVSLGDQASISCRSSQSLVHSNGNTYLHWYLQKPGQSPKLLIYKVSNRFSGVPDRFSGSGSGTDFTLKISRVEAEDLGVYFCSQSTHVPPTFGGGTKLEIK
Kd, nM: 852
--
Binder: IR-083 antibody (antibody, mouse IgG2b, V domains shown, mouse IgG2b) VH: DVQLVESGGGLVQPGGSRKLSCAASGFTFSRFGMYWVRQAPEKGLEWVAYISSGSSTIYYADIVKGRFTISRDNPKNTLFLQMTSLRSEDTAMYYCARRGYYEAMDYWGQGTSVTVSS VL: DVLMTQTPLSLPVSLGDQASISCRSSQSIVHSNGNTYLEWYLQKPGQSPKLLIYKVSNRFSGVPDRFSGSGSGTDFTLKISRVEADDLGVYYCFQGSHVPPTFGGGTKLEIK
Kd, nM: 699
